Hi there, I'd appreciate the recorded growth for every entry that follows.
test system: E. coli TESEC Mtb Asd; assay: growth (OD600 after 10 h); higher = more growth (less inhibition); settings: arabinose induction (level): High; compound 0.1 mM; raw OD600 reference: median of DMSO wells 0.331, cell-free background 0.041
Counter-ions that a name gives are not always drawn.

Solved entries:
# compound, growth
measured = [
    ("CN(C)CC/C=C1/c2ccccc2COc2ccc(CC(=O)O)cc21 [Olopatadine hydrochloride]", 0.256),
    ("CCOC(=O)O[C@]1(C(=O)COC(=O)CC)CC[C@H]2[C@@H]3CCC4=CC(=O)C=C[C@]4(C)[C@H]3[C@@H](O)C[C@@]21C [Prednicarbate]", 0.438),
    ("O=C1[C@H]2CCCC[C@H]2C(=O)N1CCCCN1CCN(c2nsc3ccccc23)CC1", 0.188),
    ("CN1CCN(CCCN2c3ccccc3Sc3ccc(C(F)(F)F)cc32)CC1 [Trifluoperazine dihydrochloride]", 0.0513),
    ("CCCCc1cc2ccccc2c(OCCN(C)C)n1 [Dimethisoquin hydrochloride]", 0.154),
]

The following compounds each have a reported value; give each one's growth.
1. CC=CC1=C(C(=O)O)N2C(=O)[C@@H](NC(=O)[C@H](N)c3ccc(O)cc3)[C@H]2SC1
2. CN1CCC(=C2c3ccccc3CC(=O)c3sccc32)CC1 [Ketotifen fumarate]
3. CN1CCC(=C2c3ccccc3CCc3cccnc32)CC1 [Azatadine maleate]

Return:
1: 0.259; 2: 0.198; 3: 0.209

###

system: E. coli TESEC Mtb Alr; assay: growth (OD600 after 10 h); higher = more growth (less inhibition); conditions: arabinose 10000 nM; compound 0.1 mM; raw OD600 reference: median of DMSO wells 0.264, cell-free background 0.041
Counter-ions that a name gives are not always drawn.
endpoint: growth

Solved entries:
# compound, targetEntity, result
rows = [
    ("CCc1oc2ccccc2c1C(=O)c1cc(Br)c(O)c(Br)c1", "E. coli TESEC Mtb Alr", 0.0403),
    ("COc1ccc2[nH]c([S+]([O-])Cc3ncc(C)c(OC)c3C)nc2n1 (stereo not drawn)", "E. coli TESEC Mtb Alr", 0.227),
    ("CNC1(C)C2CCC(C2)C1(C)C (stereo not drawn) [Mecamylamine hydrochloride]", "E. coli TESEC Mtb Alr", 0.293),
    ("Nc1c2c(nc3ccccc13)CCCC2 [Tacrine hydrochloride]", "E. coli TESEC Mtb Alr", 0.248),
    ("COc1ccccc1OCC(O)COC(N)=O (stereo not drawn)", "E. coli TESEC Mtb Alr", 0.275),
]

The following compounds each have a reported value; give each one's growth.
1. COc1cc(OC)c(C(=O)CCCN2CCCC2)c(OC)c1 [Buflomedil hydrochloride]
2. CC[C@H](C)[C@H]1O[C@]2(CC[C@@H]1C)C[C@@H]1C[C@@H](CC=C(C)C(O[C@H]3C[C@H](OC)[C@@H](O[C@H]4C[C@H](OC)[C@@H](O)[C@H](C)O4)[C@H](C)O3)[C@@H](C)C=CC=C3CO[C@@H]4[C@H](O)C(C)=C[C@@H](C(=O)O1)[C@]34O)O2 (stereo partly drawn)
3. CN(C)CCCSC(=N)N [Dimaprit dihydrochloride]

Return:
0.269
0.291
0.267
